Target: T1, P546_AMBCA (Amblyomma cajennense, UniProt A0A023FBW7 22-118);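 note: biolayer interferometry on an Octet system: chemokines at several doses tested against tick chemokine-binding proteins, association, equilibrium and dissociation curves fitted to derive Kd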
T1 sequence: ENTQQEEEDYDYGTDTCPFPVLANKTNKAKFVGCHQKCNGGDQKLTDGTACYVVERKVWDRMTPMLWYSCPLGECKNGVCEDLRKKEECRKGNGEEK
Experiment: BLI
pKd: −log10 of the molar value.
measured-metric: pKd

[[record]]
binder = "CCL4_HUMAN (ligand) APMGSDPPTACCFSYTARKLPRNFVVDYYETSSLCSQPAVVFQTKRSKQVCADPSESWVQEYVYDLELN"
measured_metric = "pKd"
experimental_result = 7.57

[[record]]
binder = "CCL18_HUMAN (ligand) AQVGTNKELCCLVYTSWQIPQKFIVDYSETSPQCPKPGVILLTKRGRQICADPNKKWVQKYISDLKLNA"
measured_metric = "pKd"
experimental_result = 7.80

[[record]]
binder = "CCL3L1_HUMAN (ligand) APLAADTPTACCFSYTSRQIPQNFIADYFETSSQCSKPSVIFLTKRGRQVCADPSEEWVQKYVSDLELSA"
measured_metric = "pKd"
experimental_result = 7.82

